Each entry below carries its recorded pIC50.
tested on: H322; experiment: Cell viability test (CellTiter 96 AQueous One Solution); type: cell-based; conditions: NCI-H322; H322 (Lung); 72 h of treatment; read-out: IC50 (cell line viability)
pIC50: −log10 of the molar value.

{"columns": ["Compound", "Value Prefix", "pIC50"],
 "data": [
  ["Cc1cncc2c1[nH]c1ccc3cc(OCCN(C)C)ccc3c12 [CH21]", "=", 6.10],
  ["Cc1c[nH]c(=O)c2c1[nH]c1ccc3cc(OCCN(C)C)ccc3c12 [Compound C14]", "<", 5.40]
]}

---

target: Aurora B (Homo sapiens, UniProt Q96GD4); experiment: Aurora B inhibition in cells: Histone H3 Ser10 phosphorylation by western blotting and immunofluorescence; assay type: cell-based; parameters: endogenous in cells; host or cells: U2OS (human osteosarcoma); HeLa also used for the maleate salts; key: +++: very efficient inhibition; −: no inhibition; settings: cells; Histone H3 Ser10 phosphorylation, western blotting and immunofluorescence; compounds 1 μM
Sequence (Q96GD4 whole entry): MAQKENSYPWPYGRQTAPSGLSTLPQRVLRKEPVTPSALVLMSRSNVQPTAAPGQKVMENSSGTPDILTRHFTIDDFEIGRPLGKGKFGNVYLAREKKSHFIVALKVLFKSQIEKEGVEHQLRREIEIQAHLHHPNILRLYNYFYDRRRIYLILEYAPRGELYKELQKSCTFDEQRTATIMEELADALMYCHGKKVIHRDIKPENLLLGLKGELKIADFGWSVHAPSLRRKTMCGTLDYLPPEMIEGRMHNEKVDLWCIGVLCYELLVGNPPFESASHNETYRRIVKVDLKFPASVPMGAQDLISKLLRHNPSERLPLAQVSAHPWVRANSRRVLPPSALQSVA
Measured Attribute: Aurora B inhibition

{"columns": ["Compound", "Result"],
 "data": [
  ["COc1ccc2c(c1)CCc1[nH]c3c(C)c[nH]c(=O)c3c1-2 [Compound C11, reference compound]", "−"],
  ["CCc1c[nH]c(=O)c2c1[nH]c1ccc3cc(OCCN(C)C)ccc3c12", "+++"],
  ["Cc1cncc2c1[nH]c1ccc3cc(OCCCN(C)C)ccc3c12", "−"],
  ["COCCOc1ccc2c(ccc3[nH]c4c(C)cnc(Cl)c4c32)c1", "−"],
  ["Cc1c[nH]c(=O)c2c1[nH]c1ccc3cc(OCCN4CCOCC4)ccc3c12", "+++"],
  ["Cc1cncc2c1[nH]c1ccc3cc(OCCN(C)C)ccc3c12", "−"],
  ["Cc1cnc(Cl)c2c1[nH]c1ccc3cc(OCCN4CCCCC4)ccc3c12", "−"],
  ["CCc1c[nH]c(=O)c2c1[nH]c1ccc3cc(OC)ccc3c12 [Compound C1, reference compound]", "+++"],
  ["Cc1cnc(Cl)c2c1[nH]c1ccc3cc(OCCN4CCOCC4)ccc3c12", "−"]
]}

---

biological target: Aurora B (Homo sapiens, UniProt Q96GD4); experiment: Aurora B inhibition in cells: Histone H3 Ser10 phosphorylation by western blotting and immunofluorescence; type: cell-based; parameters: endogenous in cells; host or cells: U2OS (human osteosarcoma); HeLa also used for the maleate salts; key: +++: very efficient inhibition; −: no inhibition; conditions: cells; Histone H3 Ser10 phosphorylation, western blotting and immunofluorescence; compounds 1 μM

{"columns": ["Compound Smiles", "Aurora B inhibition"],
 "data": [
  ["COc1ncc(C)c2[nH]c3ccc4cc(OCCN(C)C)ccc4c3c12", "−"],
  ["COCCOc1ccc2c(ccc3[nH]c4c(C)c[nH]c(=O)c4c32)c1", "−"],
  ["Cc1c[nH]c(=O)c2c1[nH]c1ccc3cc(OCCN4CCCCC4)ccc3c12", "+++"],
  ["CCc1cnc(Cl)c2c1[nH]c1ccc3cc(OCCN(C)C)ccc3c12", "−"],
  ["Cc1c[nH]c(=O)c2c1[nH]c1ccc3cc(OCCN(C)C)ccc3c12", "+++"]
]}
